experiment: Half life in mouse plasma at 1 uM for 120 mins by LC-MS/MS analysis; type: ADME, cell-free
Measured Attribute: half-life at 1 µM (h)
Express your answer in h, writing the number without its unit.

Which measured half-life at 1 µM value corresponds to O=C1C=C2C=C[C@H]3C[C@@]2(O1)[C@H]1CCCCN31 ?
1.6

====

assay: Plasma protein binding in mouse at 2000 ng/ml for 4 hrs by LC-MS/MS analysis; assay type: ADME, cell-free; conditions: read-out: PPB (converted)
# Lookup of reported fraction unbound at 4 h, 2000 ng/ml keyed by entry
Reply with the value as a number alone.

O=C1C=C2C=C[C@H]3C[C@@]2(O1)[C@H]1CCCCN31    0.51

Then this compound:
Which measured fraction unbound at 4 h, 2000 ng/ml value corresponds to CC(=O)CC(c1ccccc1)c1c(O)c2ccccc2oc1=O (configuration not stated) ?
0.06

====

tested on: PC-12; test: Neuroprotective activity against rat PC12 cells expressing mutant HTT-Q103 assessed as cell viability by alamar blue assay; assay type: functional, cell-based
Measured Attribute: EC50
Answer format: number, then unit.

Which measured EC50 value corresponds to O=C1C=C2C=C[C@H]3C[C@@]2(O1)[C@H]1CCCCN31 ?
3.3 µM
